Assignment: determine reported Plant response rating, Ducksalad for the given molecules.
test system: ducksalad (Heteranthera limosa); assay: Test B flooded paddy test; format: in vivo; conditions: Flood, 250 g ai/ha; 0 to 100 scale where 0 is no effect and 100 is complete control; 13 to 15 d
Respond using a number only.

Find the measured Plant response rating, Ducksalad: item Cc1ccc(C2CNC(=O)C2C(=O)Nc2ccc(F)c(F)c2F)cc1C(F)(F)F (racemic) , target or system ducksalad (Heteranthera limosa).
25

Likewise for CN1C[C@H](c2ccc(C(F)(F)F)cc2)[C@@H](C(=O)Nc2ccccc2F)C1=O ?
100

Likewise for CN1C[C@H](c2ccc(F)c(F)c2)[C@@H](C(=O)Nc2cccc(F)c2F)C1=O ?
100

Likewise for O=C(Nc1cccc(F)c1F)C1C(=O)N(c2ccccc2)CC1c1cccc(C(F)(F)F)c1 (stereo not drawn) ?
0

Likewise for CN1CC(c2ccccc2)C(C(=S)Nc2ccccc2F)C1=O (stereo not drawn) ?
70

Likewise for Cc1ccc(C2CNC(=O)C2C(=O)Nc2cccc(F)c2F)cc1F (racemic) ?
100

Likewise for O=C1NCC(c2cc(F)c(F)cc2F)C1C(=O)Nc1ccc(F)cc1F (racemic) ?
85

Likewise for CC(C)Oc1cccc(C2CNC(=O)C2C(=O)Nc2ccccc2F)c1 (stereo not drawn) ?
100

Likewise for Cc1ccc(C2CNC(=O)C2C(=O)Nc2ccccc2S(C)(=O)=O)c(F)c1 (racemic) ?
75

Likewise for O=C1NCC(c2cccc(OC(F)(F)C(F)F)c2)C1C(=O)Nc1ccccc1C(F)F (stereo not drawn) ?
100

Likewise for O=C1NCC(c2ccc(Br)cc2)C1C(=O)Nc1ccc(F)cc1F (stereo not drawn) ?
98

Likewise for Cc1ccc(C2CNC(=O)C2C(=O)Nc2ccccc2F)cc1F (racemic) ?
100

Likewise for CC(C)Oc1cccc(C2CN(C)C(=O)C2C(=O)Nc2ccccc2C(F)(F)F)c1 (stereo not drawn) ?
65

Likewise for Cc1cc(C2CN(C)C(=O)C2C(=O)Nc2ccc(F)cc2F)ccc1F (stereo not drawn) ?
100

Likewise for Cc1ccc(C2CNC(=O)C2C(=O)Nc2ccccc2F)c(F)c1 (racemic) ?
50

Likewise for Cc1ccc(C2CNC(=O)C2C(=O)Nc2cccc(F)c2F)cc1C(F)(F)F (stereo not drawn) ?
100

Likewise for Cc1cccc(C2CNC(=O)C2C(=O)Nc2cccc(F)c2F)c1 (racemic) ?
100

Likewise for CN1CC(c2ccc3c(c2)OC(F)(F)O3)C(C(=O)Nc2ccccc2F)C1=O (stereo not drawn) ?
90

Just for reference, patent US12077503B2 is where these values come from.
